# tested-on: T1, human CD33 (human, UniProt P20138 18-259, limits assumed)
# T1 construct: Human CD33 immobilized on the BLI sensor tip or the BIAcore C1 chip; also called Siglec-3
# protocol-notes: SPR (BIAcore), Fab over CD33 on C1 chip
Listed below: kon values for each entry.
Write the number in M⁻¹ s⁻¹ without appending the unit.

Below, 3 binders whose answers are already recorded.
binder | kon / M⁻¹ s⁻¹
AB-64.7 (antibody, V domains shown) VH: QVQLVQSGAEVKKPGASVKISCKASGYTFTDYNYHWVRQAPGQGLEWIGFIYPSNGITGYAQKFQGRATLTVDNSTSTAYMELSSLRSEDTAVYYCARSDVDYFDYWGQGTLLTVSS VL: DIVLTQSPDSLAVSLGERATINCRASQSVGTSTYSYMHWYQQKPGQPPKLLIKYASNLNSGVPDRFSGSGSGTDFTLTISSLQAEDVAVYYCQHSEEIPLTFGQGTKLEIK | 8.78e+06
AB-64.8 (antibody, V domains shown) VH: QVQLVQSGAEVKKPGASVKISCKASGYTFTDYNYHWVRQAPGQGLEWIGFIYPSNGITGYAQKFQHRATLTVDNSTSTAYMELSSLRSEDTAVYYCARSDVDYFDYWGQGTLLTVSS VL: DIVLTQSPDSLAVSLGERATINCRASQDVSTSTYSYMHWYQQKPGQPPKLLIKYASNLESGVPDRFSGSGSGTDFTLTISSLQAEDVAVYYCQHSWEIPLTFGQGTKLEIK | 7.15e+06
AB-H64 (antibody, V domains shown, Humanized variant of murine 2F5.1; also called parental humanized antibody) VH: QVQLVQSGAEVKKPGASVKISCKASGYTFTDYNLHWVRQAPGQGLEWIGFIYPSNGITGYAQKFQGRATLTVDNSTSTAYMELSSLRSEDTAVYYCARSTVDYFDYWGQGTLLTVSS VL: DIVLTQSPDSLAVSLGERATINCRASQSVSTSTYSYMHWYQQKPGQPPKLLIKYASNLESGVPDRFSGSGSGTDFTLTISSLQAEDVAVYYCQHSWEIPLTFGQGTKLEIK | 1.03e+06

Kindly consider the entry below.
input: Which kon reading was recorded for the binder AB-64.2 (antibody, V domains shown) VH: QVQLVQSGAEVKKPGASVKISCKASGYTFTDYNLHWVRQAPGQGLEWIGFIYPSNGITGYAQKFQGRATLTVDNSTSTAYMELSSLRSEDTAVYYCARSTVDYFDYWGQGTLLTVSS VL: DIVLTQSPDSLAVSLGERATINCRVSQDVSTSTYSYMHWYQQKPGQPPKLLIKYASNLESGVPDRFSGSGSGTDFTLTISSLQAEDVAVYYCQHSWEIPLTFGQGTKLEIK ?
output: 3e+06

# credit: patent US20210139581A1
